Data provenance is ChEMBL document CHEMBL1125712.

- STUDY SYSTEM: Aldo-keto reductase family 1 member B1 (Homo sapiens, UniProt P15121)
- EXPERIMENTAL DETAILS: Inhibition of aldose reductase (aldo-keto reductase, AKR1B1) isolated from human placenta.
pIC50: −log10 of the molar value.
OBSERVED PROPERTY: pIC50

INSERT INTO assay_data (compound, observed_property, qualifier_symbol, recorded_result) VALUES
  ('O=C(O)Cc1nn(Cc2nc3cc(O)cc(O)c3s2)c(=O)c2ccccc12', 'pIC50', '=', 7.06),
  ('COc1ccc2sc(Cn3nc(CC(=O)O)c4ccccc4c3=O)nc2c1', 'pIC50', '=', 6.64),
  ('O=C(O)Cc1nn(Cc2nc3cccc(C(F)(F)F)c3s2)c(=O)c2ccccc12', 'pIC50', '=', 8.00),
  ('O=C(O)Cc1nn(Cc2nc3ccccc3s2)c(=O)c2c(F)cccc12', 'pIC50', '=', 7.52),
  ('CS(=O)(=O)c1ccc2sc(Cn3nc(CC(=O)O)c4ccccc4c3=O)nc2c1', 'pIC50', '=', 5.77),
  ('O=C(O)Cc1nn(Cc2nc3cc(C(F)(F)F)cc(Cl)c3s2)c(=O)c2ccccc12', 'pIC50', '=', 7.03),
  ('O=C(O)Cc1nn(Cc2cccc(-c3nc4ccccc4s3)c2)c(=O)c2ccccc12', 'pIC50', '=', 5.24),
  ('O=C(O)Cc1nn(Cc2nc3c(O)cccc3s2)c(=O)c2ccccc12', 'pIC50', '=', 7.00),
  ('O=C(O)Cc1nn(Cc2nc3ccc(Br)cc3s2)c(=O)c2cc(Cl)c(Cl)cc12', 'pIC50', '=', 5.74),
  ('O=C(O)Cc1nn(Cc2nc3c(ccc4ccccc43)s2)c(=O)c2ccc(Cl)cc12', 'pIC50', '=', 6.46),
  ('CC(c1nc2ccccc2s1)n1nc(CC(=O)O)c2ccccc2c1=O (stereo unspecified)', 'pIC50', '=', 7.37),
  ('O=C(O)Cc1nn(Cc2nc3cc(Br)ccc3s2)c(=O)c2ccccc12', 'pIC50', '=', 8.51),
  ('COc1cccc2sc(Cn3nc(CC(=O)O)c4ccccc4c3=O)nc12', 'pIC50', '=', 7.00),
  ('Cc1ccc2nc(Cn3nc(CC(=O)O)c4ccccc4c3=O)sc2c1F', 'pIC50', '=', 6.49),
  ('O=C(O)Cc1nn(Cc2nc3ccccc3s2)c(=O)c2ccc(Cl)cc12', 'pIC50', '=', 7.47),
  ('O=C(O)Cc1nn(Cc2ccc(-c3nc4ccccc4s3)cc2)c(=O)c2ccccc12', 'pIC50', '<', 6.00),
  ('O=C(O)Cc1nn(Cc2nc3ccc(Cl)cc3s2)c(=O)c2ccccc12', 'pIC50', '=', 7.12),
  ('COc1ccc2c(=O)n(Cc3nc4ccccc4s3)nc(CC(=O)O)c2c1', 'pIC50', '=', 7.55),
  ('O=C(O)Cc1nn(Cc2nc3cccc(Cl)c3s2)c(=O)c2ccccc12', 'pIC50', '=', 9.00),
  ('O=C1NC(=O)C2(CN(Cc3nc4ccccc4s3)c3ccc(Cl)cc32)N1 (stereo unspecified)', 'pIC50', '=', 7.43),
  ('O=C(O)Cc1nn(-c2nc3ccccc3s2)c(=O)c2ccccc12', 'pIC50', '<', 6.00);
